# Test system: Raji
# measurement-description: Inhibition of 12-O-tetradecanoylphorbol-13-acetate-induced EBV-early antigen activation in human Raji cells assessed as EA induction at 10 molar ratio relative to 12-O-tetradecanoylphorbol-13-acetate by immunofluorescence technique
# Assay type: cell-based
# Parameters: scale not given: the % may be the effect or the level left
# details: human gammaherpesvirus 4
Known Activity of a selection of compounds
Give the value in % but do not write % after it.

compound	Activity (%)
CC(=O)OC1C[C@H]([C@H](C)CC/C=C(/C)C(=O)O)[C@@]2(C)CC=C3C(=CC[C@H]4C(C)(C)C(=O)CC[C@]34C)[C@]12C (stereo not given in full)	95.3

// Activity (Raji) for COC(=O)CC[C@@H](C)[C@H]1CC(=O)[C@@]2(C)C3=C(C(=O)[C@@H](O)[C@]12C)[C@@]1(C)CC[C@H](O)C(C)(C)[C@@H]1CC3=O [METHYL LUCIDENATE L] = 92.6

Entry C[C@H](CCC(=O)O)[C@H]1CC(=O)[C@@]2(C)C3=C(C(=O)C[C@]12C)[C@@]1(C)CCC(=O)C(C)(C)[C@@H]1C[C@@H]3O [LUCIDENIC ACID A] , tested on Raji, has a reported Activity of 96.1

Record for COC(=O)CC[C@@H](C)[C@H]1C[C@H](O)[C@@]2(C)C3=C(C(=O)C[C@]12C)[C@@]1(C)CCC(=O)C(C)(C)[C@@H]1C[C@@H]3O [METHYL LUCIDENATE Q] under target or system Raji: Activity reported as 95.4

Item COC(=O)CC[C@@H](C)[C@H]1CC(=O)[C@@]2(C)C3=C(C(=O)C[C@]12C)[C@@]1(C)CCC(=O)C(C)(C)[C@@H]1CC3=O [METHYL LUCIDENATE F] was tested on Raji; the reported Activity is 98.3

----------
We begin with a simple list: items and their reported Activity.
# System: Raji
# measurement-description: Inhibition of 12-O-tetradecanoylphorbol-13-acetate-induced EBV-early antigen activation in human Raji cells assessed as EA induction at 100 molar ratio relative to 12-O-tetradecanoylphorbol-13-acetate by immunofluorescence technique
# Assay type: cell-based
# Design: scale not given: the % may be the effect or the level left
# details: human gammaherpesvirus 4
State the answer as a number, implicitly in %.

compound	observation-type	experimental-result
C[C@H](CCC(=O)O)[C@H]1CC(=O)[C@@]2(C)C3=C(C(=O)[C@@H](O)[C@]12C)[C@@]1(C)CC[C@H](O)C(C)(C)[C@@H]1C[C@@H]3O	Activity	72.6
C[C@H](CCC(=O)O)[C@H]1CC(=O)[C@@]2(C)C3=C(C(=O)C[C@]12C)[C@@]1(C)CCC(=O)C(C)(C)[C@@H]1C[C@@H]3O	Activity	73
COC(=O)CC[C@@H](C)[C@H]1CC(=O)[C@@]2(C)C3=C(C(=O)[C@@H](OC(C)=O)[C@]12C)[C@@]1(C)CCC(=O)C(C)(C)[C@@H]1CC3=O [METHYL LUCIDENATE D2]	Activity	76.9
COC(=O)CC[C@@H](C)[C@H]1CC(=O)[C@@]2(C)C3=C(C(=O)[C@@H](OC(C)=O)[C@]12C)[C@@]1(C)CC[C@H](O)C(C)(C)[C@@H]1C[C@@H]3O [METHYL LUCIDENATE P]	Activity	77.4
COC(=O)C(C)CC(=O)C[C@@H](C)[C@H]1CC(=O)[C@@]2(C)C3=C(C(=O)[C@@H](OC(C)=O)[C@]12C)[C@@]1(C)CCC(=O)C(C)(C)[C@@H]1CC3=O (stereo partly specified) [METHYL GANODERATE F]	Activity	75.3

Next item in the queue.
get_value(item= CC(=O)OC1C[C@H]([C@H](C)CC/C=C(/C)C(=O)O)[C@@]2(C)CC=C3C(=CC[C@H]4C(C)(C)C(=O)CC[C@]34C)[C@]12C (stereo partly specified) , readout=Activity) returns 74.6

----------
# Tested on: Raji
# measurement-description: Inhibition of 12-O-tetradecanoylphorbol-13-acetate-induced EBV-early antigen activation in human Raji cells assessed as EA induction at 10 molar ratio relative to 12-O-tetradecanoylphorbol-13-acetate by immunofluorescence technique
# Format: cell-based
# Design: scale not given: the % may be the effect or the level left
# details: human gammaherpesvirus 4
observation-type: Activity

molecule	experimental-result
COC(=O)CC[C@@H](C)[C@H]1CC(=O)[C@@]2(C)C3=C(C(=O)[C@@H](OC(C)=O)[C@]12C)[C@@]1(C)CCC(=O)C(C)(C)[C@@H]1CC3=O [METHYL LUCIDENATE D2]	98%
C[C@H](CCC(=O)O)[C@H]1CC(=O)[C@@]2(C)C3=C(C(=O)[C@@H](O)[C@]12C)[C@@]1(C)CC[C@H](O)C(C)(C)[C@@H]1C[C@@H]3O	93.1%
CC(=O)O[C@@H]1C(=O)C2=C(C(=O)C[C@H]3C(C)(C)[C@@H](O)CC[C@]23C)[C@]2(C)C(=O)C[C@H]([C@H](C)CCC(=O)O)[C@@]12C [LUDICENIC ACID E2]	94%
COC(=O)C(C)CC(=O)C[C@@H](C)[C@H]1CC(=O)[C@@]2(C)C3=C(C(=O)[C@@H](OC(C)=O)[C@]12C)[C@@]1(C)CCC(=O)C(C)(C)[C@@H]1CC3=O (some centres not stated) [METHYL GANODERATE F]	100%
COC(=O)CC[C@@H](C)[C@H]1CC(=O)[C@@]2(C)C3=C(C(=O)[C@@H](OC(C)=O)[C@]12C)[C@@]1(C)CC[C@H](O)C(C)(C)[C@@H]1CC3=O [METHYL LUCIDENATE E2]	95.4%

Lab note: C[C@H](CC(=O)C[C@@H](C)[C@H]1CC(=O)[C@@]2(C)C3=C(C(=O)C[C@]12C)[C@@]1(C)CCC(=O)C(C)(C)[C@@H]1CC3=O)C(=O)O gave Activity of 97.4%

Value of Activity reported for the molecule CC(=O)O[C@@H]1C(=O)C2=C([C@@H](O)C[C@H]3C(C)(C)[C@@H](O)CC[C@]23C)[C@]2(C)C(=O)C[C@H]([C@H](C)CCC(=O)O)[C@@]12C is 96.6%

The recorded Activity for CC1=C(/C=C/C(C)=C/C=C/C(C)=C/C=C/C=C(C)/C=C/C=C(C)/C=C/C2=C(C)CCCC2(C)C)C(C)(C)CCC1 is 100%

Recorded result, COC(=O)CC[C@@H](C)[C@H]1CC(=O)[C@@]2(C)C3=C(C(=O)[C@@H](OC(C)=O)[C@]12C)[C@@]1(C)CC[C@H](O)C(C)(C)[C@@H]1C[C@@H]3O [METHYL LUCIDENATE P] , Activity: 97.6%

Entry under test: COC(=O)CC[C@@H](C)[C@H]1CC(=O)[C@@]2(C)C3=C(C(=O)C[C@]12C)[C@@]1(C)CCC(=O)C(C)(C)[C@@H]1C[C@@H]3O [METHYL LUCIDENATE A] . Its Activity was 95%

Entry CC(=O)O[C@@H]1C(=O)C2=C(C(=O)C[C@H]3C(C)(C)C(=O)CC[C@]23C)[C@]2(C)C(=O)C[C@H]([C@H](C)CCC(=O)O)[C@@]12C [LUCIDENIC ACID D2] , Activity reported as 96.1%

Documented Activity of CC(=O)O[C@@H]1C(=O)C2=C(C(=O)C[C@H]3C(C)(C)C(=O)CC[C@]23C)[C@]2(C)C(=O)C[C@H]([C@H](C)CC(=O)CC(C)C(=O)O)[C@@]12C (some centres not stated) : 98.7%
